Test system: CCRIS mutagenicity, Ames/micronucleus/aberration tests
Assay: CCRIS mutagenicity studies
Conditions: Test System: AMES SALMONELLA TYPHIMURIUM; Strain/Indicator: TA102; Metabolic Activation: NONE; Method: PREINCUBATION
Text: The CCRIS database contains chemical records with carcinogenicity, mutagenicity, tumor promotion, and tumor inhibition test results. It was developed by the National Cancer Institute (NCI). Data are derived from studies cited in primary journals, current awareness tools, NCI reports, and other sources. Test results have been reviewed by experts in carcinogenesis and mutagenesis. CCRIS provides historical information from the years 1985 - 2011. It is no longer updated. […]
Active and inactive are the calls of the source. The rule behind the calls is not given here.
Pick from T (active), F (inactive) when you respond.

Solved cases (4 shown):
test_smiles=CCC[N+](=O)[O-] assigned_class=F
test_smiles=O=C1C=C(S(=O)(=O)O)c2ccccc2C1=O assigned_class=F
test_smiles=NN assigned_class=T
test_smiles=O=C1C=Cc2c(ccc3cc4ccccc4cc23)C1=O assigned_class=F

Prompt line: Would you mind telling me which call this test gave CCCCCCCCCCCCCCCC(=O)OC[C@H](O)[C@H]1OC(=O)C(O)=C1O ?
Response line: F
